Reported IC50 is given for each of the following compounds.
biological target: hematopoietic prostaglandin D synthase (H-PGDS) (Homo sapiens, UniProt O60760); construct: Full length human H-PGDS cDNA (Invitrogen Ultimate ORF IOH13026) was amplified by PCR; 6-His (N); TEV protease cleavage site (N); made in house; host or cells: E. coli BL21 (DE3*), vector pET22b+; assay: H-PGDS RapidFire High Throughput Mass Spectrometry Assay; assay type: biochemical; conditions: conversion of PGH2 to PGD2 by human H-PGDS, 10 nM enzyme; mean pIC50; read-out: Potency Range (mean pIC50) (converted)
Sequence (O60760 whole entry): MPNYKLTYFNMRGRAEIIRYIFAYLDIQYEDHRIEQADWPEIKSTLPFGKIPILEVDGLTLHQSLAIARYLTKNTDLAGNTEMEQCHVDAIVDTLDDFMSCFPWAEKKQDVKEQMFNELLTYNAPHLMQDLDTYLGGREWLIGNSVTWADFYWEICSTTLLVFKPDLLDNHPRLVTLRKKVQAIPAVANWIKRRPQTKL

Sample O=C(N[C@H]1CC[C@H](O)CC1)c1cnc2nc(C3CC3)sc2c1 [Example 16] ; IC50 observed: 0.1 to 1 µM

Sample CS(=O)(=O)CC(O)[C@H]1CC[C@H](NC(=O)c2cnc3nc(C4CC4)sc3c2)CC1 (mixture of isomers) [Example 28] ; IC50 observed: 0.1 to 1 µM

Sample CNc1nc2ncc(C(=O)N[C@H]3CC[C@H](C(C)(C)O)CC3)cc2s1 [Example 7] ; IC50 observed: 0.1 to 1 µM

Would you kindly look at the next entry?
Sample CC(C)(C)c1nc2ncc(C(=O)N[C@H]3CC[C@H](C(C)(C)O)CC3)cc2s1 [Example 27] ; IC50 observed: 0.1 to 1 µM

====

Reported IC50 is given for each of the following compounds.
biological target: hematopoietic prostaglandin D synthase (H-PGDS) (Homo sapiens); construct: Full length human H-PGDS cDNA (Invitrogen Ultimate ORF IOH13026) was amplified by PCR; 6-His (N); TEV protease cleavage site (N); made in house; host or cells: E. coli BL21 (DE3*), vector pET22b+; experiment: H-PGDS RapidFire High Throughput Mass Spectrometry Assay; type: biochemical; settings: conversion of PGH2 to PGD2 by human H-PGDS, 10 nM enzyme; mean pIC50; read-out: Potency Range (mean pIC50) (converted)

Sample C[C@]1(O)C[C@@H](NC(=O)c2cnc3cc(C4CC4)sc3c2)C1 ; IC50 observed: 1260 to 10000 nM

Sample CC(C)N(c1nc2ncc(C(=O)N[C@H]3CC[C@H](C(C)(C)O)CC3)cc2s1)C(C)C ; IC50 observed: 1260 to 10000 nM

====

target: hematopoietic prostaglandin D synthase (H-PGDS) (Homo sapiens); construct: Full length human H-PGDS cDNA (Invitrogen Ultimate ORF IOH13026) was amplified by PCR; 6-His (N); TEV protease cleavage site (N); made in house; host or cells: E. coli BL21 (DE3*), vector pET22b+; assay: H-PGDS RapidFire High Throughput Mass Spectrometry Assay; assay type: biochemical; details: conversion of PGH2 to PGD2 by human H-PGDS, 10 nM enzyme; mean pIC50; read-out: Potency Range (mean pIC50) (converted)
Reported IC50 is given for each of the following molecules.

Answered examples (3):
Form: item C[C@H]1CCN1c1nc2ncc(C(=O)N[C@H]3CC[C@H](C(C)(C)O)CC3)cc2s1 ; test system hematopoietic prostaglandin D synthase (H-PGDS) (Homo sapiens); IC50: 10 to 79.4 nM

Form: item CC(C)Nc1nc2ncc(C(=O)N[C@H]3CC[C@H](C(C)(C)O)CC3)cc2s1 ; test system hematopoietic prostaglandin D synthase (H-PGDS) (Homo sapiens); IC50: 100 to 1000 nM

Form: item CC(C)(F)c1nc2ncc(C(=O)N[C@H]3CC[C@H](C(C)(C)O)CC3)cc2s1 ; test system hematopoietic prostaglandin D synthase (H-PGDS) (Homo sapiens); IC50: 100 to 1000 nM

New cases:
Form: item O=C(N[C@H]1CC[C@H](C(O)C(F)(F)F)CC1)c1cnc2nc(C3CC3)sc2c1 (mixture of isomers) ; test system hematopoietic prostaglandin D synthase (H-PGDS) (Homo sapiens); IC50: 10 to 79.4 nM

Form: item CC(C)c1nc2ncc(C(=O)N[C@H]3CC[C@H](C(C)(C)O)CC3)cc2s1 ; test system hematopoietic prostaglandin D synthase (H-PGDS) (Homo sapiens); IC50: 100 to 1000 nM

Form: item O=C(N[C@H]1CCNC1=O)c1cnc2nc(C3CC3)sc2c1 ; test system hematopoietic prostaglandin D synthase (H-PGDS) (Homo sapiens); IC50: 100 to 1000 nM

Form: item CC(C)(O)[C@H]1CC[C@H](NC(=O)c2cnc3nc(N(C4CC4)C4CC4)sc3c2)CC1 ; test system hematopoietic prostaglandin D synthase (H-PGDS) (Homo sapiens); IC50: 1260 to 10000 nM

Form: item CC(C)(O)[C@H]1CC[C@H](NC(=O)c2cnc3nc(C4CC4)sc3c2)CC1 ; test system hematopoietic prostaglandin D synthase (H-PGDS) (Homo sapiens); IC50: 10 to 79.4 nM
